- Tested System: P97 (Homo sapiens (Human))
- Sequence (P55072 whole entry): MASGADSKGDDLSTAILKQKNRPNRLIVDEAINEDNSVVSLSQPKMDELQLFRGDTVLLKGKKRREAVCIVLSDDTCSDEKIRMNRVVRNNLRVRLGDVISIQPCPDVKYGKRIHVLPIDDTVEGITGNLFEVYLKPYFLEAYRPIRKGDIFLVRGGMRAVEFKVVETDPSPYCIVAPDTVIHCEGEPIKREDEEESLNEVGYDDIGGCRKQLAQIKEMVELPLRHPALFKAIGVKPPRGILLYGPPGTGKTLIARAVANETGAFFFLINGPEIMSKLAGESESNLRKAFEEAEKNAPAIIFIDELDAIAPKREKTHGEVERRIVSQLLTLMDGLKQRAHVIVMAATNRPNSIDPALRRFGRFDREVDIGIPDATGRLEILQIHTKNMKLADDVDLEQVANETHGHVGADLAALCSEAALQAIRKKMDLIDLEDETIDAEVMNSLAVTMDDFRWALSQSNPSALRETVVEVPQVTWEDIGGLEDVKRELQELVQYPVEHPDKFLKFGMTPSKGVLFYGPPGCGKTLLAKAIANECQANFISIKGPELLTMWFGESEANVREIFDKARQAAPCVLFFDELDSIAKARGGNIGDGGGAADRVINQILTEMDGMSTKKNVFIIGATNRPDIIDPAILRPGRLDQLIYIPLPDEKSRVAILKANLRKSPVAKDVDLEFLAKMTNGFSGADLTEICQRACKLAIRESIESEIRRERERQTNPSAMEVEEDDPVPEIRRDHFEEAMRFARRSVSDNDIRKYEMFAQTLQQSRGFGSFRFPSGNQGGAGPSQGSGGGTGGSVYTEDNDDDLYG
- Test Description: P97 Biomolgreen ATPase assay, 200 μM ATP
- Format: biochemical
- Test Conditions: read-out: P97 Biomolgreen, IC50
The entries below are paired with their reported IC50.
Endpoint Name: IC50 (nM)

> print(dat)
                                   compound  endpoint.name  measured.value
1  CC(=O)N1CCN(C(=O)OCC#Cc2ccc(OCc3nnc(SC4C=CCCC4)n3-c3cccnc3)cc2C)CC1 (stereo not shown)           IC50              30
2  C=C(C)C(=O)NCC#Cc1ccc(OCc2nnc(SC3C=CCCC3)n2-c2cccnc2)cc1C (stereo not shown)           IC50              60
3  Cc1cc(OCc2nnc(SC3C=CCCC3)n2-c2cccnc2)ccc1C#CCOC(=O)NCCC(=O)N1CCN(C)CC1 (stereo not shown)           IC50              29
4  N#Cc1cc(OCc2nnc(SC3C=CCCC3)n2-c2cccnc2)ccc1C#CCO (stereo not shown)           IC50             100

Source of measurements: patent US10894782B2
